Target: GABA-A receptor; anion channel (Homo sapiens) (UniProt P14867+P47870+P18507+P28472+P48169+Q99928+Q9UN88+P34903+O00591+O14764+Q8N1C3+P18505+P78334+P47869+P31644+Q16445)
Assay: Percentage of GABA-induced chloride currents with 10e-4 M 4-biphenylacetic acid
Assay type: functional
Details: Bull Frog
property: Currents (%)
Field: numeric (%). Do not append units.

Query: Annotate the molecule CCn1cc(C(=O)O)c(=O)c2cc(F)c(N3CCOC(CN)C3)c(F)c21 (centres undefined) with its measured Currents.
Reply: 79

Query: Tell me measured Currents for CN(C)CC1CN(c2c(F)cc3c(=O)c(C(=O)O)cn(C4CC4)c3c2F)CCO1 (centres undefined) please.
Reply: 83

Query: Fill in reported Currents for this entry: CC1COc2c(N3CCN(C)CC3)c(F)cc3c(=O)c(C(=O)O)cn1c23 (centres undefined)
Reply: 39

Query: Supply measured Currents of CCn1cc(C(=O)O)c(=O)c2cc(F)c(N3CCOCC3)cc21 in your reply.
Reply: 92

Query: Answer with the recorded Currents for the molecule listed here: NCC1CN(c2c(F)cc3c(=O)c(C(=O)O)cn(C4CC4)c3c2F)CCO1 (centres undefined)
Reply: 72

Query: Annotate the molecule O=C(O)c1cn(C2CC2)c2cc(N3CCOCC3)c(F)cc2c1=O with its measured Currents.
Reply: 91

Query: Given CNCC1CN(c2c(F)cc3c(=O)c(C(=O)O)cn(C4CC4)c3c2F)CCO1 (centres undefined) , respond with its Currents.
Reply: 78

Query: Give a short answer stating reported Currents for NCC1CN(c2cc3c(cc2F)c(=O)c(C(=O)O)cn3C2CC2)CCO1 (centres undefined) .
Reply: 81

Query: Please list Currents recorded for the molecule O=C(O)c1cn(C2CC2)c2c(F)c(N3CCNCC3)c(F)cc2c1=O
Reply: 0
